test: Micelle size by dynamic light scattering (DLS); assay type: physicochemical; conditions: micelles at 1.0% by weight
Can you tell me Rh (nm) for the items I'm about to list?
Numbers only, in nm.

Answered cases to consult:
compound | result-units | Rh (nm)
CCCCCCCCCCC(CCCCCCCCCC)(COC1OC(CO)C(O)C(O)C1O)C(CCOC1OC(CO)C(O)C(O)C1O)OC1OC(CO)C(O)C(O)C1O (mixture of isomers) [ACA-AC10] | nm | 2.7
CCCCCCCCCCCCO[C@@H]1O[C@H](CO)[C@@H](O[C@H]2O[C@H](CO)[C@@H](O)[C@H](O)[C@H]2O)[C@H](O)[C@H]1O [DDM, n-dodecyl-β-D-maltopyranoside, reference compound] | nm | 3.4
CCCCCCCCCCCCC(CCCCCCCCCCCC)(COC1OC(CO)C(O)C(O)C1O)C(CCOC1OC(CO)C(O)C(O)C1O)OC1OC(CO)C(O)C(O)C1O (mixture of isomers) [ACA-AC12] | nm | 8.9
CCCCCCCCCCCCCC(COC1OC(CO)C(O)C(O)C1O)C(OC1OC(CO)C(O)C(O)C1O)C(CCCCCCCCCCCCC)COC1OC(CO)C(O)C(O)C1O (mixture of isomers) [ACA-SC13] | nm | 13.9

Go through the items and report each one's Rh (nm).
1. CCCCCCCCCCCC(COC1OC(CO)C(O)C(O)C1O)C(OC1OC(CO)C(O)C(O)C1O)C(CCCCCCCCCCC)COC1OC(CO)C(O)C(O)C1O (mixture of isomers) [ACA-SC11]
2. CCCCCCCCCCCCC(COC1OC(CO)C(O)C(O)C1O)C(OC1OC(CO)C(O)C(O)C1O)C(CCCCCCCCCCCC)COC1OC(CO)C(O)C(O)C1O (mixture of isomers) [ACA-SC12]
3. CCCCCCC(CCCCCC)(CO[C@@H]1O[C@H](CO)[C@@H](O)[C@H](O)[C@H]1O)CO[C@@H]1O[C@H](CO)[C@@H](O)[C@H](O)[C@H]1O [OGNG, octyl glucoside neopentyl glycol, reference compound]
4. CCCCCCCCCCCC(CCCCCCCCCCC)(COC1OC(CO)C(O)C(O)C1O)C(CCOC1OC(CO)C(O)C(O)C1O)OC1OC(CO)C(O)C(O)C1O (mixture of isomers) [ACA-AC11]

Given back:
1. 2.9
2. 8.3
3. 4.4
4. 3.3

---

assay: Critical micelle concentration by fluorescence staining using diphenylhexatriene (DPH); assay type: physicochemical; conditions: aqueous solution
endpoint-name: CMC (% by weight)

Answered cases to consult:
molecule | CMC (% by weight)
CCCCCCCCCCCC(COC1OC(CO)C(O)C(O)C1O)C(OC1OC(CO)C(O)C(O)C1O)C(CCCCCCCCCCC)COC1OC(CO)C(O)C(O)C1O (mixture of isomers) | ~0.0009 % by weight
CCCCCCC(CCCCCC)(CO[C@@H]1O[C@H](CO)[C@@H](O)[C@H](O)[C@H]1O)CO[C@@H]1O[C@H](CO)[C@@H](O)[C@H](O)[C@H]1O [OGNG, octyl glucoside neopentyl glycol, reference compound] | ~0.058 % by weight

Shifting focus to the molecule that follows.
Asked: Identify CMC (% by weight) associated with the molecule CCCCCCCCCCCCCC(COC1OC(CO)C(O)C(O)C1O)C(OC1OC(CO)C(O)C(O)C1O)C(CCCCCCCCCCCCC)COC1OC(CO)C(O)C(O)C1O (mixture of isomers)
Given back: ~0.0005 % by weight
